# studySystem: T1, recombinant biotinylated rat PAR2 extracellular residues 1-75, N-terminal AviTag, C-terminal Flag and poly … (rat, UniProt Q63645 26-75, not fully specified; biotin on the AviTag (enzymatic biotinylation))
# T1 construct: range 1-75; not shown: N-terminal AviTag (Avidity LLC); C-terminal Flag and poly Histidine tags
# T1 chain (looked up): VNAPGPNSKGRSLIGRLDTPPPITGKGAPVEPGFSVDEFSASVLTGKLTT
# assayName: Biacore SPR 25 C, pH 7.4
measurementType: koff (s⁻¹)
Please reply with the bare figure in s⁻¹ and do not write the unit itself.

Given PaB670048 Fab (Fab, V domains shown, Fab; also called ZZ1KX4-E11) VH: EVQLLESGGGLVQPGGSLRLSCAASGFTFSSYAMNWVRQAPGKGLEWVSTISYSGSLISYADSVKGRFTISRDNSKNTLYLQMNSLRAEDTAVYYCARIHHDPMDHWGQGTLVTVSS VL: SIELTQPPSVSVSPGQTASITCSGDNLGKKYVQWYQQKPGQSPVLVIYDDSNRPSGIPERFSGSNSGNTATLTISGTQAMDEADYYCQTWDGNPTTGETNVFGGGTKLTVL , respond with its koff.
0.00307

Given PaB670103 Fab (Fab, V domains shown, Fab; also called ZZ1RCX-C09) VH: EVQLLESGGGLVQPGGSLRLSCAASGFTFSSYAMNWVRQAPGKGLEWVSTISYSGSLISYADSVKGRFTISRDNSKNTLYLQMNSLRAEDTAVYYCARINNDPMDVWGQGTLVTVSS VL: SIELTQPPSVSVSPGQTASITCSGDNLGKKYVQWYQQKPGQSPVLVIYDDSNRPSGIPERFSGSNSGNTATLTISGTQAMDEADYYCHTWDGHHTTGETNHFGGGTKLTVL , respond with its koff.
0.000558

Given PaB670084 Fab (Fab, V domains shown, Fab; also called ZZ1PXA-A05) VH: EVQLLESGGGLVQPGGSLRLSCAASGFTFSSYAMNWVRQAPGKGLEWVSTISHSGHLIHHADSHKGRFTISRDNSKNTLYLQMNSLRAEDTAVYYCARINNDPMDVWGQGTLVTVSS VL: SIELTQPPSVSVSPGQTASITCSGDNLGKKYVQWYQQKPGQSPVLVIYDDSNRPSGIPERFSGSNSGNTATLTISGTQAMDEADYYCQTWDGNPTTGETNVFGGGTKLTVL , respond with its koff.
0.00837

Moving on to another binder below.
Given PaB670120 Fab (Fab, V domains shown, Fab; also called ZZ1RUC-C11) VH: EVQLLESGGGLVQPGGSLRLSCAASGFTFSSYAMNWVRQAPGKGLEWVSTISYHGHHISYADSHHHRFTISRDNSKNTLYLQMNSLRAEDTAVYYCARINHDPMDVWGQGTLVTVSS VL: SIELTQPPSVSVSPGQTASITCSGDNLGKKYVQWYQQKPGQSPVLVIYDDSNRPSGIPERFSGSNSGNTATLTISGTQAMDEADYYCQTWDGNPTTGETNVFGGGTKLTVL , respond with its koff.
0.0146
